- test: PK study in mice (intravenous and oral)
- Type: in vivo
- condition_set: female, BALB/cAnNCrj-nu/nu, mouse, plasma, oral 30 mg/kg

smiles_data | AUC(0-inf), µg·h/mL
COc1cc2nccc(Oc3ccc(NC(=O)NC4CC4)c(Cl)c3)c2cc1C(N)=O | 118

====

- test: PK study in rats (intravenous and oral)
- Assay type: in vivo
- condition_set: male, Sprague-Dawley, rat, plasma, po, 3 mg/kg, oral 3 mg/kg

smiles_data | half-life (h)
COc1cc2nccc(Oc3ccc(NC(=O)NC4CC4)c(Cl)c3)c2cc1C(N)=O | 3.61

====

- test: phase-1 clinical trial, oral PK in humans
- Type: in vivo
- condition_set: human, plasma; calculated from AUCoral at 9 mg oral dose in a phase-1 study and fp 0.0172; read-out: observed CLint in humans (converted)
measured_endpoint: CLint scaled (mL/min/kg)

smiles_data | measured_endpoint | observed_result
COc1cc2nccc(Oc3ccc(NC(=O)NC4CC4)c(Cl)c3)c2cc1C(N)=O | CLint scaled | 75.1

====

- test: PK study in mice (intravenous and oral)
- Assay type: in vivo
- condition_set: female, BALB/cAnNCrj-nu/nu, mouse, plasma, oral 10 mg/kg

compound | Tmax, min
COc1cc2nccc(Oc3ccc(NC(=O)NC4CC4)c(Cl)c3)c2cc1C(N)=O [lenvatinib, Lenvatinib] | 30

====

- test: PK study in rats (intravenous and oral)
- Assay type: in vivo
- condition_set: male, Sprague-Dawley, rat, plasma, intravenous 3 mg/kg, extrapolated

compound | C0
COc1cc2nccc(Oc3ccc(NC(=O)NC4CC4)c(Cl)c3)c2cc1C(N)=O [lenvatinib, Lenvatinib] | 16000 ng/mL

====

- test: PK study in mice (intravenous and oral)
- Type: in vivo
- condition_set: female, BALB/cAnNCrj-nu/nu, mouse, plasma, po, 30 mg/kg, oral 30 mg/kg
measured_endpoint: half-life (h)

smiles_data | observed_result
COc1cc2nccc(Oc3ccc(NC(=O)NC4CC4)c(Cl)c3)c2cc1C(N)=O | 1.85

====

- test: PK study in mice (intravenous and oral)
- Assay type: in vivo
- condition_set: female, BALB/cAnNCrj-nu/nu, mouse, plasma, po, 3 mg/kg, oral 3 mg/kg
- Experimental: Female BALB/cAnNCrj-nu/nu mice were purchased from Charles River Laboratories (Kanagawa, Japan) and were acclimatized for 9 days prior to use in the PK study. At the dosing day, 7-week-old mice were used. E7080 was dissolved in 5% glucose injection to make a 0.3 mg/mL solution for intravenous administration and dissolved in water to make 0.3, 1, and 3 mg/mL solutions for oral administrations. […]

compound | half-life (h)
COc1cc2nccc(Oc3ccc(NC(=O)NC4CC4)c(Cl)c3)c2cc1C(N)=O [lenvatinib, Lenvatinib] | 2.09

====

- test: PK study in dogs (intravenous and oral)
- Format: in vivo
- condition_set: male, beagle, dog, plasma, oral 3 mg/kg

smiles_data | unit_of_measure | half-life
COc1cc2nccc(Oc3ccc(NC(=O)NC4CC4)c(Cl)c3)c2cc1C(N)=O | h | 4.76

====

- Tested on: plasma protein
- test: in vitro plasma protein binding, rats
- Type: in vitro ADME
- condition_set: rat plasma, 0.3 μg/mL
measured_endpoint: fraction unbound at 0.3 μg/mL

compound | assay_system | measured_endpoint | observed_result
COc1cc2nccc(Oc3ccc(NC(=O)NC4CC4)c(Cl)c3)c2cc1C(N)=O [lenvatinib, Lenvatinib] | plasma protein | fraction unbound at 0.3 μg/mL | 0.019

These measurements were taken from paper PMC10205807.
